experimentNotes: Inhibition of NS5B RNA dependent RNA polymerase in HCV 1b Con1 infected in human Huh5-2 cells assessed as reduction in viral RNA replication measured after 3 days by luciferase reporter gene assay
observedProperty: EC50 (µM)

Example entries and their recorded answers appear below.
COC[C@H]1C[C@@](CC(C)C)(C(=O)O)N(C(=O)c2ccc(C(C)(C)C)c(OC)c2)[C@H]1CN=[N+]=[N-]: 100
COC[C@H]1C[C@@](CC(C)C)(C(=O)O)N(C(=O)c2ccc(C(C)(C)C)c(OC)c2)[C@H]1[C@H]1COC(C)(C)O1: 60
COC[C@H]1C[C@@](CC(C)C)(C(=O)O)N(C(=O)c2ccc(C(C)(C)C)c(OC)c2)[C@H]1[C@H]1COC(=O)O1: 2
C=CCOC[C@H]1[C@@H](COC)C[C@@](CC(C)C)(C(=O)O)N1C(=O)c1ccc(C(C)(C)C)c(OC)c1: 7.5
COC[C@H]1C[C@@](CC(C)C)(C(=O)O)N(C(=O)c2ccc(C(C)(C)C)c(OC)c2)[C@H]1CF: 45
COC[C@H]1C[C@@](CC(C)C)(C(=O)O)N(C(=O)c2ccc(C(C)(C)C)c(OC)c2)[C@H]1c1nccs1: 0.1

a = COC[C@H]1C[C@@](CC(C)C)(C(=O)O)N(C(=O)c2ccc(C(C)(C)C)c(OC)c2)[C@H]1CNC(C)=O
b = COC[C@H]1C[C@@](CC(C)C)(C(=O)O)N(C(=O)c2ccc(C(C)(C)C)c(OC)c2)[C@H]1COC(C)=O
c = COC[C@H]1C[C@@](CC(C)C)(C(=O)O)N(C(=O)c2ccc(C(C)(C)C)c(OC)c2)[C@H]1COC
d = COC[C@H]1C[C@@](CC(C)C)(C(=O)O)N(C(=O)c2ccc(C(C)(C)C)c(OC)c2)[C@H]1C(=O)OC
e = COC[C@H]1C[C@@](CC(C)C)(C(=O)O)N(C(=O)c2ccc(C(C)(C)C)c(OC)c2)[C@H]1C(N)=O
Hi! Can you put these in order of EC50, lowest number first? Answer by naming the labels in the order asked. c, e, d, a, b
(c: 0.6 µM, e: 2 µM, d: 7 µM, a: 15 µM, b: 30 µM)

A = CC[C@H]1[C@@H](COC)C[C@@](CC(C)C)(C(=O)O)N1C(=O)c1ccc(C(C)(C)C)c(OC)c1
B = COC[C@H]1C[C@@](CC(C)C)(C(=O)O)N(C(=O)c2ccc(C(C)(C)C)c(OC)c2)[C@@H]1c1nccs1
C = CCOC(=O)c1csc([C@H]2[C@@H](COC)C[C@@](CC(C)C)(C(=O)O)N2C(=O)c2ccc(C(C)(C)C)c(OC)c2)n1
Ranking field: EC50; order: falling. Response field: labels, in requested order. C, A, B
(C: 60 µM, A: 40 µM, B: 15 µM)
